B1: SNAP91 (parent)
chain: FATASAAVPVSTSKPSSDLLDLQP

Variants of: B1
Test: protein stability index of a GFP-peptide fusion (GPS, HEK-293T) (PSI 1-6); higher = more stable;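 also: lentivirally expressed fusions sorted by FACS into six bins by GFP to DsRed ratio, PSI derived from sequencing read proportions per bin multiplied by bin number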
Conditions: c terminus: a fixed tail appended
// bucketize protein stability index: low: < 3; moderate: ≥ 3 and < 4; high: ≥ 4

Example entries and their recorded answers appear below.
V10I    moderate
S11A    moderate
L20S    high
L22S    high
L19S    high

Lab note: which band did `A7Q` land in?
moderate

Cool, now `L22V`
moderate

Here is the next variant: `F1H`
high

And the next one, `S16W` ?
low

Now consider `S5V` .
moderate

Also check `D18I`
moderate

Repeat with `T12N`
moderate

Could you do the same for `S17R` , please?
moderate
